- Test system: Listeria monocytogenes 10403S
- method description: growth inhibition relative to ceftriaxone-alone control; higher = stronger potentiation of ceftriaxone growth inhibition
- cond: 10 µM; ceftriaxone 1 ug/ml; 12 h
Examples of compounds with documented growth inhibition follow.

{"compound": "O=C1NC(=O)C(c2cccc(Cl)c2)=C1Nc1ccc(O)c(Cl)c1", "growth inhibition": "-7.55%"}
{"compound": "CN(C)c1ccc(-c2nc3ncc(Cl)c(N4CCN(CC(=O)Nc5nccs5)CC4)c3[nH]2)cc1", "growth inhibition": "15.3%"}
{"compound": "O=C1Nc2ccc(I)cc2C1=Cc1cc(Br)c(O)c(Br)c1", "growth inhibition": "36.9%"}
{"compound": "CN1CCN(CCOc2cc(OC3CCOCC3)c3c(Nc4c(Cl)ccc5c4OCO5)ncnc3c2)CC1 [Saracatinib (AZD0530)]", "growth inhibition": "-2.45%"}
{"compound": "CC[C@H](CO)Nc1nc(NCc2ccccc2)c2ncn(C(C)C)c2n1 [Roscovitine (Seliciclib, CYC202)]", "growth inhibition": "22.9%"}
{"compound": "O=C(Nc1cccc(Nc2ncc(Br)c(NCCc3cnc[nH]3)n2)c1)N1CCCC1", "growth inhibition": "9.34%"}
{"compound": "COC(=O)Nc1nc2cc(Oc3cccc(NC(=O)Nc4cc(C(F)(F)F)ccc4F)c3)ccc2[nH]1", "growth inhibition": "-5.06%"}

* * *

- System: Listeria monocytogenes 10403S;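 further: End-point A600 read in BHI broth at 37 °C with 2% DMSO, inhibition computed as (1 − OD with compound plus ceftriaxone ÷ OD with ceftriaxone only) × 100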
- method description: growth inhibition relative to ceftriaxone-alone control; higher = stronger potentiation of ceftriaxone growth inhibition
- cond: 10 µM; ceftriaxone 1 ug/ml; 12 h
// reported growth inhibition for each item listed

{"compound": "O=C1NC(=O)/C(=C/c2ccc3nccc(-c4ccncc4)c3c2)S1", "unit text": "%", "growth inhibition": 19.4}
{"compound": "NC(=O)c1ccc(N(C(N)=O)c2c(F)cccc2F)nc1-c1ccc(F)cc1F", "unit text": "%", "growth inhibition": 3.69}
{"compound": "COc1ccc2cc(-c3c(-c4ccncc4)nc(-c4ccc([S+](C)[O-])cc4C)n3C)ccc2c1 (stereo unspecified)", "unit text": "%", "growth inhibition": 17.6}
{"compound": "COc1ccc2[nH]c3c4[nH]c5ccc(OC)cc5c4c4c(c3c2c1)C(=O)NC4=O", "unit text": "%", "growth inhibition": -8.86}
{"compound": "NC(=O)Nc1cc(-c2cccc(F)c2)sc1C(=O)N[C@H]1CCCNC1", "unit text": "%", "growth inhibition": 16.7}
{"compound": "Cc1ccc(C(=O)NC2CCCCC2)cc1-c1ccc(C(=O)NCC2CC2)cc1", "unit text": "%", "growth inhibition": -1.78}

Data provenance: the supplement of paper PMC5641865
